- Tested on: HepG2
- procedure_details: Cytotoxicity against human HepG2 cells assessed as reduction in cell growth after 3 days by MTT assay
- Type: functional, cell-based
- condition_context: HepG2, 72 h
experimental_endpoint: pIC50
Give bare numbers, as −log10 of the molar value.

>  <structure_string>
CCOC(=O)/C(C)=C/[C@H](C(C)C)N(C)C(=O)[C@@H](NC(=O)[C@@H](NC)C(C)(C)c1ccc2ccccc2c1)C(C)(C)C

>  <experimental_endpoint>
pIC50

>  <observed_value>
7.89

$$$$
>  <structure_string>
CN[C@H](C(=O)N[C@H](C(=O)N(C)[C@H](/C=C(\C)C(=O)O)C(C)C)C(C)(C)C)C(C)(C)c1coc2ccccc12

>  <experimental_endpoint>
pIC50

>  <observed_value>
8.72

$$$$
>  <structure_string>
CN[C@H](C(=O)N[C@H](C(=O)N(C)[C@H](/C=C(\C)C(=O)O)C(C)C)C(C)(C)C)C(C)(C)c1ccc(Br)cc1

>  <experimental_endpoint>
pIC50

>  <observed_value>
8.74

$$$$

// moving on: another record for pIC50
pIC50 for `CCOC(=O)/C(C)=C/[C@H](C(C)C)N(C)C(=O)[C@@H](NC(=O)[C@H](NC)C(C)(C)c1ccc2ccccc2c1)C(C)(C)C` is 6.84

The origin of these recorded values is ChEMBL document CHEMBL3351904.
